meta.source: patent US20240190841A1

- test.system: BCL6 (Homo sapiens, UniProt P41182)
- Construct: endogenous in cells; host or cells: T47D breast cancer epithelial cells
- test.description: Immunofluorescence high content imaging of BCL6 degradation in T47D cells
- Assay type: cell-based
- test.parameters: T47D breast cancer epithelial cells, 3 days incubation
assay.readout: Dmax

compound: CNC(=O)COc1cc2cc(Nc3nc(N4CCC(O[C@H]5C[C@H](N6CCN(c7ccc8c(c7F)n(C(C)C)c(=O)n8C7CCC(=O)NC7=O)CC6)C5)CC4)ncc3Cl)ccc2n(C(C)C)c1=O (stereo partly shown) [Compound 28]
test.system: BCL6 (Homo sapiens, UniProt P41182)
reported.measurement: ≥ 70%

compound: CNC(=O)COc1cc2cc(Nc3nc(N4CCC(O[C@H]5C[C@H](N6CCN(c7ccc8c(c7)ncn8C7CCC(=O)NC7=O)CC6)C5)CC4)ncc3Cl)ccc2n(C(C)C)c1=O (stereo partly shown) [Compound 23]
test.system: BCL6 (Homo sapiens, UniProt P41182)
reported.measurement: 50 to 70%

compound: CNC(=O)COc1cc2cc(Nc3nc(N4CCC(O)(CC(=O)N5CCN(c6ccc7c(c6F)CN(C6CCC(=O)NC6=O)C7=O)CC5)CC4)ncc3Cl)ccc2n(C(C)C)c1=O (stereo not shown) [Compound 41]
test.system: BCL6 (Homo sapiens, UniProt P41182)
reported.measurement: ≥ 70%

// each compound listed below needs its Dmax
1. CNC(=O)COc1cc2cc(Nc3nc(N4CCN(C(=O)CC5(O)CCN(c6ccc7c(c6F)CN(C6CCC(=O)NC6=O)C7=O)CC5)CC4)ncc3Cl)ccc2n(C(C)C)c1=O (stereo not shown) [Compound 40]
2. CNC(=O)COc1cc2cc(Nc3nc(N4CCC(O[C@H]5C[C@H](N6CCN(c7ccc8c(c7)n(C)c(=O)n8C7CCC(=O)NC7=O)CC6)C5)CC4)ncc3Cl)ccc2n(C(C)C)c1=O (stereo partly shown) [Compound 3]
3. CNC(=O)COc1cc2cc(Nc3nc(N4CCC(O[C@H]5C[C@H](N6CCN(c7cccc8c7n(C)c(=O)n8C7CCC(=O)NC7=O)CC6)C5)CC4)ncc3Cl)ccc2n(C(C)C)c1=O (stereo partly shown) [Compound 2]
4. CNC(=O)COc1cc2cc(Nc3nc(N4CCC(O[C@H]5C[C@H](N6CCN(c7ccc8c(c7)n(C)c(=O)n8C7CCC(=O)NC7=O)[C@H](C)C6)C5)CC4)ncc3Cl)ccc2n(C(C)C)c1=O (stereo partly shown) [Compound 13]
5. CNC(=O)COc1cc2cc(Nc3nc(N4CCC(O[C@H]5C[C@H](N6CCN(c7ccc8ncn(C9CCC(=O)NC9=O)c8c7)CC6)C5)CC4)ncc3Cl)ccc2n(C(C)C)c1=O (stereo partly shown) [Compound 24]
6. CNC(=O)COc1cc2cc(Nc3nc(N4CCC(O[C@H]5C[C@H](N6CCN(c7ccc8c(c7F)[C@@H](C)N([C@H]7CCC(=O)NC7=O)C8=O)[C@H](C)C6)C5)CC4)ncc3Cl)ccc2n(C(C)C)c1=O (single isomer, unassigned) [Compound 30]
7. CNC(=O)COc1cc2cc(Nc3nc(N4CCC(O[C@H]5C[C@H](N6CCN(c7ccc8c(c7Cl)[C@H](C)N([C@H]7CCC(=O)NC7=O)C8=O)[C@H](C)C6)C5)CC4)ncc3Cl)ccc2n(C(C)C)c1=O (single isomer, unassigned) [Compound 34]

1. ≥ 70%
2. ≥ 70%
3. ≥ 70%
4. ≥ 70%
5. ≥ 70%
6. < 50%
7. < 50%

For every item in the list below, what is its measured Dmax?
1. CNC(=O)COc1cc2cc(Nc3nc(N4CCC(O[C@H]5C[C@H](N6CCC(c7cccc8c7n(C)c(=O)n8C7CCC(=O)NC7=O)CC6)C5)CC4)ncc3Cl)ccc2n(C(C)C)c1=O (stereo partly shown) [Compound 1]
2. CNC(=O)COc1cc2cc(Nc3nc(N4CCC(O[C@H]5C[C@H](N6CCN(c7ccc8c(c7)n(C7CCC(=O)NC7=O)c(=O)n8C)CC6)C5)CC4)ncc3Cl)ccc2n(C(C)C)c1=O (stereo partly shown) [Compound 11]

1: ≥ 70%; 2: < 50%

// for each compound below, give its Dmax
1. CNC(=O)COc1cc2cc(Nc3nc(N4CCC(O[C@H]5C[C@H](N6CCN(c7ccc8c(c7Cl)[C@@H](C)N([C@@H]7CCC(=O)NC7=O)C8=O)[C@H](C)C6)C5)CC4)ncc3Cl)ccc2n(C(C)C)c1=O (single isomer, unassigned) [Compound 33]
2. CNC(=O)COc1cc2cc(Nc3nc(N4CCC(O[C@H]5C[C@H](N6CCN(c7cc8c(cc7F)n(C7CCC(=O)NC7=O)c(=O)n8C)CC6)C5)CC4)ncc3Cl)ccc2n(C(C)C)c1=O (stereo partly shown) [Compound 9]
3. CNC(=O)COc1cc2cc(Nc3nc(N4CCC(CN5CCC(N6CCN(c7ccc8c(c7F)CN(C7CCC(=O)NC7=O)C8=O)CC6)C(F)(F)C5)CC4)ncc3Cl)ccc2n(C(C)C)c1=O (stereo not shown) [Compound 42]
4. CNC(=O)COc1cc2cc(Nc3nc(N4CCC(O[C@H]5C[C@H](N6CCC(c7cc(C)c8c(c7)CN(C7CCC(=O)NC7=O)C8=O)CC6)C5)CC4)ncc3Cl)ccc2n(C(C)C)c1=O (stereo partly shown) [Compound 37]
5. CNC(=O)COc1cc2cc(Nc3nc(N4CCC(O[C@H]5C[C@H](N6CCC(c7ccc8c(c7)n(C)c(=O)n8C7CCC(=O)NC7=O)CC6)C5)CC4)ncc3Cl)ccc2n(C(C)C)c1=O (stereo partly shown) [Compound 4]

1: ≥ 70%; 2: ≥ 70%; 3: 50 to 70%; 4: ≥ 70%; 5: ≥ 70%

Batch: Dmax for all items listed.
1. CNC(=O)COc1cc2cc(Nc3nc(N4CCC(CN5CCC(N6CCC(c7ccc8c(c7F)CN(C7CCC(=O)NC7=O)C8=O)CC6)C(F)(F)C5)CC4)ncc3Cl)ccc2n(C(C)C)c1=O (stereo not shown) [Compound 43]
2. CNC(=O)COc1cc2cc(Nc3nc(N4CCC(O[C@H]5C[C@H](N6CCN(c7cc(C)c8c(c7)n(C)c(=O)n8C7CCC(=O)NC7=O)CC6)C5)CC4)ncc3Cl)ccc2n(C(C)C)c1=O (stereo partly shown) [Compound 26]

50 to 70%
50 to 70%
